- Measured on: human α1D‐adrenoceptor (full length) (Homo sapiens, UniProt P25100)
- Construct: human α1D‐adrenoceptor (full length) were used; expressed in transfected cells; host or cells: CHO-K1
- Sequence (P25100 whole entry): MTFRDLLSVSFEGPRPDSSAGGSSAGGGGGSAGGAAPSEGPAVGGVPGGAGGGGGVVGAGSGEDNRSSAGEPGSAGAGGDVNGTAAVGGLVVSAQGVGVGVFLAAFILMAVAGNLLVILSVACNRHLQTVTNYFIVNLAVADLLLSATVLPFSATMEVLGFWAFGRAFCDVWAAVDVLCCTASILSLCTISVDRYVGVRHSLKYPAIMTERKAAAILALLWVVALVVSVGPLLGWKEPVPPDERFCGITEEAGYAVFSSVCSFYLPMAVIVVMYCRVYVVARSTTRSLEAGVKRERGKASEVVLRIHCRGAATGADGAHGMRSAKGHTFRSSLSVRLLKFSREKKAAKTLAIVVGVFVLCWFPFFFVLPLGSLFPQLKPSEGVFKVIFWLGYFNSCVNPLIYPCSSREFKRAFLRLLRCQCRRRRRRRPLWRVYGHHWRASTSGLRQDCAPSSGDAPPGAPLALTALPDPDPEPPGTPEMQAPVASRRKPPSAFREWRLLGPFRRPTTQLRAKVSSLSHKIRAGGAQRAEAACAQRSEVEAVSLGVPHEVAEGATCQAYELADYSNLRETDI
- Protocol text: Intracellular free calcium mobilization, CHO‐α1D cells
- Format: cell-based
Reported property: Intracellular calcium release Log EC50

Below: 4 compounds and their reported Intracellular calcium release Log EC50.
So, CN1C[C@H](C(=O)N[C@]2(C)O[C@@]3(O)[C@@H]4CCCN4C(=O)[C@H](Cc4ccccc4)N3C2=O)C[C@@H]2c3cccc4[nH]cc(c34)C[C@H]21 [Dihydroergotamine] ? Its Intracellular calcium release Log EC50 was No response

So, Cc1ccc(/N=C/N(C)/C=N/c2ccc(C)cc2C)c(C)c1 ? Its Intracellular calcium release Log EC50 was No response

So, CC(N)C(O)c1ccc(O)c(O)c1 (stereo not drawn) [α‐Methylnorepinephrine] ? Its Intracellular calcium release Log EC50 was −7.02 ± 0.10

So, COc1ccc(CC(C)NCC(O)c2ccc(O)c(NC=O)c2)cc1 (centres unmarked) ? Its Intracellular calcium release Log EC50 was No response

Now take the following compound into account.
So, Nc1cc(Cl)c(N=C2NCCN2)c(Cl)c1 ? Its Intracellular calcium release Log EC50 was No response

---

- Measured on: human α1D‐adrenoceptor (full length) (Homo sapiens, UniProt P25100)
- Construct: human α1D‐adrenoceptor (full length) were used; expressed in transfected cells; host or cells: CHO-K1
- Protocol text: ^3H‐prazosin whole‐cell radioligand binding, CHO‐α1D cells
Exercise: state measured Affinity selectivity ratio α1A vs α1D for each of the compounds provided.
Expressed in fold, but write only the number.

So, CC(N)C(O)c1ccc(O)c(O)c1 (stereo not drawn) [α‐Methylnorepinephrine] ? Its Affinity selectivity ratio α1A vs α1D was 3.3

So, Cc1cccc(C(C)c2cnc[nH]2)c1C (stereo not shown) [Medetomidine] ? Its Affinity selectivity ratio α1A vs α1D was 1.1

So, Cc1cccc([C@H](C)c2cnc[nH]2)c1C [Dexmedetomidine] ? Its Affinity selectivity ratio α1A vs α1D was 1.3

So, Cc1cccc(C)c1N=C1NCCCS1 [Xylazine] ? Its Affinity selectivity ratio α1A vs α1D was 1.2

---

- Measured on: human α1B‐adrenoceptor (Homo sapiens, UniProt P35368)
- Construct: expressed in transfected cells; host or cells: CHO-K1
- Sequence (P35368 whole entry): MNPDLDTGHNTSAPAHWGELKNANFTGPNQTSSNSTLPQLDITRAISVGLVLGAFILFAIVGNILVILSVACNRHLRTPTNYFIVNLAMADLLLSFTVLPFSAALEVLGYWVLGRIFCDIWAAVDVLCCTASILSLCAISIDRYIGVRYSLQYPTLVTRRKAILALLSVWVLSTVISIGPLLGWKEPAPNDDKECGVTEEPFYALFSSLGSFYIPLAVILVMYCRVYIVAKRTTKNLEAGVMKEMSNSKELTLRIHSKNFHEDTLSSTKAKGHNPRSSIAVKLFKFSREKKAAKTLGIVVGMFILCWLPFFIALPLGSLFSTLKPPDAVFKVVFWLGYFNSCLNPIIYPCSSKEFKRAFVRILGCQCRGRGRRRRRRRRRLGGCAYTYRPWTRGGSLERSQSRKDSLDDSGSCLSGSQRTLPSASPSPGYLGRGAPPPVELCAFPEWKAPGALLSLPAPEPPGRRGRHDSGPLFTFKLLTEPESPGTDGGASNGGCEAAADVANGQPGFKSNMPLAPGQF
- Protocol text: ERK1/2‐phosphorylation (Surefire Alphascreen), CHO‐α1B cells
- Assay type: cell-based
Exercise: state measured ERK1/2‐phosphorylation Log EC50 for each of the compounds provided.
Output spec: single numeric token, no unit.

So, CN[C@@H](C)[C@H](O)c1ccccc1 ? Its ERK1/2‐phosphorylation Log EC50 was −4.67

So, CC(N)C(O)c1ccc(O)c(O)c1 (stereo not drawn) [α‐Methylnorepinephrine] ? Its ERK1/2‐phosphorylation Log EC50 was −6.75

So, C=CCN1CCc2nc(N)sc2CC1 ? Its ERK1/2‐phosphorylation Log EC50 was −5.31

---

- Measured on: human α1B‐adrenoceptor (Homo sapiens, UniProt P35368)
- Construct: expressed in transfected cells; host or cells: CHO-K1
- Protocol text: ^3H‐cAMP accumulation, CHO‐α1B cells
- Format: cell-based
- Applied conditions: CHO‐α1B cells; % forskolin maximum response
Reported property: cAMP accumulation % forskolin (%)
Expressed in %, but write only the number.

So, CNC[C@H](O)c1cccc(O)c1 [R‐phenylephrine] ? Its cAMP accumulation % forskolin was 86.2

So, Nc1cc(Cl)c(N=C2NCCN2)c(Cl)c1 [para‐amino‐clonidine] ? Its cAMP accumulation % forskolin was 2.5

So, Cc1cccc([C@H](C)c2cnc[nH]2)c1C [Dexmedetomidine] ? Its cAMP accumulation % forskolin was 3.7

So, c1ccc2c(c1)OCC(C1=NCCN1)O2 (stereo not drawn) [Idazoxan] ? Its cAMP accumulation % forskolin was 2.4

So, NCCc1ccc(O)c(O)c1 [Dopamine] ? Its cAMP accumulation % forskolin was 53.0
